Tested on: ESBL (E. coli)
Details: ESBL
Description: The antibacterial activity was evaluated according to an antibacterial activity test method for measuring the minimum inhibitory concentration 50 (MIC50; the minimal concentration that kills 50% of bacteria). More specifically, 100 μL of a medium was dispensed into each well of a 96-well plate, and in the first column, an antibiotic and a peptide in 200 μL of the medium were dispensed. […] The plate was incubated in a 37° C. incubator for 4 hours, and measured at OD600 nm.
Square brackets hold non-standard residues; d marks the D form. Peptide text beside a SMILES is read from it.
Would you mind telling me the reported MIC50, ESBL (E. coli) of each entry?

Please review the following examples before continuing.
{"compound": "CC(C)C[C@@H](NC(=O)[C@H](N)CCCCN)C(=O)N[C@H](CCCNC(=N)N)C(=O)N[C@@H](C(=O)N[C@H](CCCCN)C(=O)N[C@H](CC(C)C)C(=O)N[C@H](CCCNC(=N)N)C(=O)N[C@H](CCCNC(=N)N)C(=O)N[C@H](Cc1ccc(O)cc1)C(=O)N[C@H](CC(C)C)C(=O)N[C@H](CCCNC(=N)N)C(N)=O)C(C)C [allD FP13-NH2 (AcOH)] (H-[dK][dL][dR][dV][dK][dL][dR][dR][dY][dL][dR]-NH2; N-terminus assumed)", "MIC50, ESBL (E. coli)": "<1 µg/mL"}
{"compound": "CC(C)C[C@@H](NC(=O)[C@H](N)CCCNC(=N)N)C(=O)N[C@H](CCCNC(=N)N)C(=O)N[C@@H](C(=O)N[C@H](CCCCN)C(=O)N[C@H](CC(C)C)C(=O)N[C@H](CCCNC(=N)N)C(=O)N[C@H](CCCNC(=N)N)C(=O)N[C@H](Cc1c[nH]c2ccccc12)C(=O)N[C@H](CC(C)C)C(=O)N[C@H](CCCNC(=N)N)C(N)=O)C(C)C [allD FP21-NH2] (H-[dR][dL][dR][dV][dK][dL][dR][dR][dW][dL][dR]-NH2; N-terminus assumed)", "MIC50, ESBL (E. coli)": "<0.5 µg/mL"}
{"compound": "CC(C)C[C@@H](NC(=O)[C@H](N)CCCCN)C(=O)N[C@H](CCCNC(=N)N)C(=O)N[C@@H](C(=O)N[C@H](CCCCN)C(=O)N[C@H](CC(C)C)C(=O)N[C@H](CCCNC(=N)N)C(=O)N[C@H](CCCNC(=N)N)C(=O)N[C@H](Cc1ccc(O)cc1)C(=O)N[C@H](CC(C)C)C(=O)N[C@H](CCCNC(=N)N)C(N)=O)C(C)C [allD FP13-NH2] (H-[dK][dL][dR][dV][dK][dL][dR][dR][dY][dL][dR]-NH2; N-terminus assumed)", "MIC50, ESBL (E. coli)": "<0.5 µg/mL"}

Enquiry: Which MIC50, ESBL (E. coli) reading was recorded for the compound CC(C)C[C@@H](NC(=O)[C@H](N)CCCNC(=N)N)C(=O)N[C@H](CCCNC(=N)N)C(=O)N[C@@H](C(=O)N[C@H](CCCCN)C(=O)N[C@H](CC(C)C)C(=O)N[C@H](CCCNC(=N)N)C(=O)N[C@H](CCCNC(=N)N)C(=O)N[C@H](Cc1ccc(O)cc1)C(=O)N[C@H](CC(C)C)C(=O)N[C@H](CCCNC(=N)N)C(N)=O)C(C)C [allD FP12-NH2] (H-[dR][dL][dR][dV][dK][dL][dR][dR][dY][dL][dR]-NH2; N-terminus assumed) ?
Return: <0.5 µg/mL

====

Would you mind telling me the reported log10(Kd) of each entry?
experiment: LPS binding affinity by Isothermal Titration Calorimeter (ITC); design: species or system E. coli K1; conditions: peptide binding to LPS; read-out: Kd (calculated by ITC)
Ends that are not written are not given here.
Log scale reminder: Kd in µM, then log10 taken.

Please review the following examples before continuing.
{"substance": "KLGVEAKRYLD [FP1(WT), reference compound]", "log10(Kd)": 2.38}
{"substance": "KLRVKLRRYLR-NH2 [FP13-NH2]", "log10(Kd)": 2.07}
{"substance": "PEG-KLRVKLRRYLR-NH2 [PEG-alld FP13-NH2 (AcOH)]", "log10(Kd)": 1.24}

Each of the following entries comes with a recorded value; kindly state log10(Kd) for each.
1. LRLGVEAKRYLR [FP5]
2. KLGVEALRYLD [FP9]
3. KLGVEAKRYLR [FP3]
4. LRLGVELKRYLR [FP6]
5. RLRVKLRRYLR-NH2 [FP12-NH2]
6. KLRVKLRRWLR [allD FP-13-9w-NH2]

Return:
[2.93, 2.51, 2.52, 1.05, -0.62, 1.24]

====

assay: In vivo toxicity, survival rate (Example 9); design: species or system ICR mice; conditions: mouse, ip, mice, intraperitoneal six times, survival for 72 hours
Square brackets hold non-standard residues; d marks the D form. Peptide text beside a SMILES is read from it.
parameter_measured: LD50 (mg/kg)
Answers are plain numbers, in mg/kg.

Enquiry: Which LD50 reading was recorded for the compound CC(C)C[C@@H](NC(=O)[C@H](N)CCCCN)C(=O)N[C@H](CCCNC(=N)N)C(=O)N[C@@H](C(=O)N[C@H](CCCCN)C(=O)N[C@H](CC(C)C)C(=O)N[C@H](CCCNC(=N)N)C(=O)N[C@H](CCCNC(=N)N)C(=O)N[C@H](Cc1ccc(O)cc1)C(=O)N[C@H](CC(C)C)C(=O)N[C@H](CCCNC(=N)N)C(N)=O)C(C)C [allD FP13-NH2 (AcOH)] (H-[dK][dL][dR][dV][dK][dL][dR][dR][dY][dL][dR]-NH2; N-terminus assumed) ?
Return: 80

====

test system: CR-Klebsiella pneumoniae; details: CR-
Ends that are not written are not given here.
Would you mind telling me the reported MIC50, CR-Klebsiella pneumoniae of each entry?

Please review the following examples before continuing.
{"substance": "RLRVKLRRYLR-NH2 [FP12-NH2]", "parameter_measured": "MIC50, CR-Klebsiella pneumoniae", "obs_value": "<8 µg/mL"}
{"substance": "KLRVKLRRYLR [FP13]", "parameter_measured": "MIC50, CR-Klebsiella pneumoniae", "obs_value": "<62 µg/mL"}
{"substance": "RLRVKLRRYLR [FP12]", "parameter_measured": "MIC50, CR-Klebsiella pneumoniae", "obs_value": "<62 µg/mL"}

Okay, now this substance:
Enquiry: Which MIC50, CR-Klebsiella pneumoniae reading was recorded for the substance KLRVKLRRYLR-NH2 [FP13-NH2] ?
Return: <16 µg/mL
